System tested: Carbonic anhydrase 1 (Homo sapiens)
Sequence (P00915 whole entry): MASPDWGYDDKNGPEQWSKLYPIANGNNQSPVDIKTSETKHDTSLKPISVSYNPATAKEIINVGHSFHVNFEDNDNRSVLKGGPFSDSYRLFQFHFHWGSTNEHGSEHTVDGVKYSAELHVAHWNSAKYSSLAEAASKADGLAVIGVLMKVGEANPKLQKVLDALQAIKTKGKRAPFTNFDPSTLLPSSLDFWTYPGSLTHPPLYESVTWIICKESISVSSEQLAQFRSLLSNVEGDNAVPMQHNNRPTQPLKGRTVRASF
# Lookup of reported pKi keyed by entry
Answer as the number alone; pKi is minus log10 of concentration in mol/L.

compound="Cc1cccc(N2C(=O)CSC2c2cccs2)n1 (stereo not given)" quantitative_readout=5.17
compound=Cc1cccc(N2C(=O)[C@@H](C)S[C@H]2c2ccc(C)s2)n1 quantitative_readout=5.35
compound="Cc1cccc(N2C(=O)C(C)SC2c2cccs2)n1 (stereo not given)" quantitative_readout=5.26
compound=Cc1cccc(N2C(=O)[C@H](C)S[C@H]2c2sccc2C)n1 quantitative_readout=4.56

Continue with the next compound.
**Q:** Please look at "Cc1cccc(N2C(=O)[C@@H](C)S[C@H]2c2sccc2C)n1" and tell me its recorded pKi on Carbonic anhydrase 1 (Homo sapiens).
**A:** 4.53

----------
Endpoint: Ki. System: Carbonic anhydrase 2 (Homo sapiens, UniProt P00918). Items follow.
Give a bare numeral; the unit nM is implied.

Worked cases, Ki given:
compound="Cc1cccc(N2C(=O)CSC2c2cccs2)n1 (stereo not drawn)" measured_parameter=Ki quantitative_readout=1340
compound=Cc1cccc(N2C(=O)[C@@H](C)S[C@H]2c2ccc(C)s2)n1 measured_parameter=Ki quantitative_readout=810

**Q:** Look up and report measured Ki for this entry: Cc1cccc(N2C(=O)C(C)SC2c2cccs2)n1 (stereo not drawn)
**A:** 1320

The origin of these recorded values is BindingDB's records for doi:10.3109/14756366.2012.732071.
